These entries and their values trace back to patent US12037325B2.

compounds and their reported IC50
target: hSTING (Homo sapiens, UniProt Q86WV6); assay: Inhibition test of intracellular human STING (hSTING) pathways using reporter cells (HEK-Blue ISG, SEAP reporter); settings: stimulation with Compound 3 (10 nM), 21 hours, read-out: Inhibitory Activity on hSTING
Sequence (Q86WV6 whole entry H232R): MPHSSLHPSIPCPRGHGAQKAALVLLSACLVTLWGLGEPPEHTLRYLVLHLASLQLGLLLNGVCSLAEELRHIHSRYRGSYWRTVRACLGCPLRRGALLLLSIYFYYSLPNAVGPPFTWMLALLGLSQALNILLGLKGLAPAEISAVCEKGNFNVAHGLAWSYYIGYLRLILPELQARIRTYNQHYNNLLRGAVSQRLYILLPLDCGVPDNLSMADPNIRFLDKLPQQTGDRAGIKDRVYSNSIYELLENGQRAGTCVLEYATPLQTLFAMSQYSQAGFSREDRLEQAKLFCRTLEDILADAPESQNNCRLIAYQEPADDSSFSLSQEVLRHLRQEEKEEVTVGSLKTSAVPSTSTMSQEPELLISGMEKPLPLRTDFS
Where a name gives a salt, the structure may show the parent alone.

{"columns": ["compound", "recorded_measurement"],
 "data": [
  ["CNn1c(Nc2c[nH]c3c(F)cc(F)cc23)nc2cc(C(F)(F)F)cc(F)c21 [Example 13, hydrochloride]", "< 100 nM"]
]}

Ask: Please look at CNn1c(Nc2c[nH]c3c(F)cc(F)cc23)nc2cc(C(F)(F)F)ccc21 [Example 5] and tell me its recorded IC50 on hSTING (Homo sapiens, UniProt Q86WV6).
Reply: < 100 nM

Ask: Recall the reported IC50 of CNn1c(Nc2c[nH]c3ccc(Cl)nc23)nc2cc(C(F)(F)F)ccc21 [Example 26, hydrochloride] when tested on hSTING (Homo sapiens, UniProt Q86WV6).
Reply: 1000 to 10000 nM

====

This section presents compounds with their documented IC50 values.
target: STING (Homo sapiens, UniProt Q86WV6, G230A/H232R/R293Q/R71H); test: Inhibition test of human IFN-β production by cGAMP stimulation in THP-1 cells; settings: PMA-treated THP-1 cells, 2'3'-cGAMP transfection, 18 hours, ELISA of culture supernatant; read-out: Inhibitory effect on the IFN-β production
Sequence (Q86WV6 whole entry R71H/G230A/H232R/R293Q): as the sequence (Q86WV6 whole entry H232R) above, with R71H, G230A, R293Q counted along it
Structures can show the parent of a compound that is named as a salt.

# count of solved cases: 3
{"columns": ["compound", "measured_metric", "recorded_measurement"],
 "data": [
  ["CNn1c(Nc2c[nH]c3ncc(Cl)cc23)nc2cc(C(F)(F)F)ccc21 [Example 27, hydrochloride]", "IC50", "100 to 1000 nM"],
  ["CNn1c(Nc2c[nH]c3ccc(Cl)nc23)nc2cc(C(F)(F)F)ccc21 [Example 26, hydrochloride]", "IC50", "100 to 1000 nM"],
  ["Nn1c(Nc2c[nH]c3c(F)cc(F)cc23)nc2cc(C(F)(F)F)ccc21 [Example 21, hydrochloride]", "IC50", "100 to 1000 nM"]
]}

Ask: # return recorded IC50 for input CNn1c(Nc2c[nH]c3c(F)cc(F)cc23)nc2cc(C(F)(F)F)cc(F)c21 [Example 13, hydrochloride]
Reply: < 10 nM

====

target: hSTING (Homo sapiens, UniProt Q86WV6); test: Inhibition test of intracellular human STING (hSTING) pathways using reporter cells (HEK-Blue ISG, SEAP reporter); details: stimulation with Compound 3 (10 nM), 21 hours, read-out: Inhibitory Activity on hSTING
Structures can show the parent of a compound that is named as a salt.
# key: entry, value: IC50

Some solved cases for reference:
{"columns": ["compound", "measured_metric", "recorded_measurement"],
 "data": [
  ["CNn1c(Nc2c[nH]c3ccc(F)cc23)nc2cc(C(F)(F)F)ccc21 [Example 16, hydrochloride]", "IC50", "< 100 nM"],
  ["CNn1c(Nc2c[nH]c3cc(F)c(F)cc23)nc2cc(C(F)(F)F)ccc21", "IC50", "< 100 nM"],
  ["CCNn1c(Nc2c[nH]c3cc(F)c(F)cc23)nc2cc(C(F)(F)F)cc(F)c21 [Example 23, hydrochloride]", "IC50", "< 100 nM"]
]}

Proceed to the following item.
Ask: Kindly indicate its recorded IC50. Item: "Nn1c(Nc2c[nH]c3ccc(F)cc23)nc2cc(C(F)(F)F)ccc21"
Reply: 100 to 1000 nM

====

biological target: STING (Homo sapiens, UniProt Q86WV6, G230A/H232R/R293Q/R71H); test: Inhibition test of human IFN-β production by cGAMP stimulation in THP-1 cells; conditions: PMA-treated THP-1 cells, 2'3'-cGAMP transfection, 18 hours, ELISA of culture supernatant; read-out: Inhibitory effect on the IFN-β production
pIC50: −log10 of the molar value. Structures can show the parent of a compound that is named as a salt.
Recorded pIC50, one value per entry.

Ask: Note pIC50 for the compound shown: Cc1ccc2[nH]cc(Nc3nc4cc(C(F)(F)F)c(F)cc4n3N)c2c1 [Example 9, hydrochloride]
Reply: > 8.00

Ask: // fetch pIC50 given entry CCNn1c(Nc2c[nH]c3ccc(Cl)cc23)nc2cc(C(F)(F)F)ccc21 [Example 6, Hydrochloride]
Reply: > 8.00

Ask: Input "CNn1c(Nc2c[nH]c3cc(F)c(F)cc23)nc2cc(C(F)(F)F)c(F)cc21" , output reported pIC50.
Reply: 7.00 to 8.00

Ask: Please give measured pIC50 of the following entry: CNn1c(Nc2c[nH]c3ccc(C)c(F)c23)nc2cc(C(F)(F)F)ccc21 [Example 17, hydrochloride]
Reply: > 8.00

Ask: Name the recorded pIC50 of the item "CNn1c(Nc2c[nH]c3ccc(C)cc23)nc2cc(C(F)(F)F)c(F)cc21" in your answer.
Reply: > 8.00

Ask: For the compound Nn1c(Nc2c[nH]c3ccc(Cl)cc23)nc2cc(C(F)(F)F)c(F)cc21 [Example 7, hydrochloride] , give its reported pIC50.
Reply: > 8.00

Ask: Please list pIC50 recorded for the compound "Nn1c(Nc2c[nH]c3ccc(F)cc23)nc2cc(C(F)(F)F)ccc21"
Reply: 7.00 to 8.00

Ask: Specify pIC50 for CCNn1c(Nc2c[nH]c3c(F)cc(F)cc23)nc2cc(C(F)(F)F)cc(F)c21 [Example 22, hydrochloride] and stop.
Reply: 7.00 to 8.00

====

molecular target: hSTING (Homo sapiens); experiment: Inhibition test of intracellular human STING (hSTING) pathways using reporter cells (HEK-Blue ISG, SEAP reporter); settings: stimulation with Compound 3 (10 nM), 21 hours, read-out: Inhibitory Activity on hSTING
Structures can show the parent of a compound that is named as a salt.
Measured IC50, listed per entry.

{"columns": ["compound", "recorded_measurement"],
 "data": [
  ["CNn1c(Nc2c[nH]c3ccc(F)c(F)c23)nc2cc(C(F)(F)F)c(F)cc21 [Example 12, hydrochloride]", "1000 to 10000 nM"],
  ["Nn1c(Nc2c[nH]c3cc(F)c(F)cc23)nc2cc(C(F)(F)F)ccc21 [Example 2, Formate]", "< 100 nM"],
  ["CCNn1c(Nc2c[nH]c3c(F)cc(F)cc23)nc2cc(C(F)(F)F)ccc21 [Example 19]", "< 100 nM"],
  ["CNn1c(Nc2c[nH]c3ccc(C)c(F)c23)nc2cc(C(F)(F)F)ccc21 [Example 17, hydrochloride]", "< 100 nM"]
]}

Ask: For the compound CCNn1c(Nc2c[nH]c3ccc(Cl)cc23)nc2cc(C(F)(F)F)ccc21 [Example 6, Hydrochloride] , give its reported IC50.
Reply: < 100 nM
